- Test system: C2C12
- Measurement Protocol: Cytotoxicity against mouse C2C12 cells assessed as cell viability at 0.01 to 100 ug/mL after 24 hrs by MTT assay
- Format: cell-based
- Assay Setup: c2c12, 24 h
Result Type: Activity

line_notation=C[C@@H]1C[C@H]2[C@@H]3CCC4=CC(=O)C=C[C@]4(C)C3=CC[C@]2(C)[C@@]1(O)C(=O)CO measured_on=C2C12 val=Non-toxic
line_notation=CC(=O)OCC(=O)[C@H]1[C@H](C)C[C@H]2[C@@H]3CCC4=CC(=O)C=C[C@]4(C)C3=CC[C@@]21C measured_on=C2C12 val=Non-toxic
line_notation=CCCC[C@@H]1C[C@H]2[C@@H]3CCC4=CC(=O)CC[C@]4(C)C3=CC[C@]2(C)[C@H]1C(=O)CO measured_on=C2C12 val=Toxic
line_notation=CCCN(CCC)CC(=O)[C@H]1[C@H](C)C[C@H]2[C@@H]3CCC4=CC(=O)CC[C@]4(C)C3=CC[C@@]21C measured_on=C2C12 val=Non-toxic

Entry source: ChEMBL document CHEMBL2346557
